Entry source: PubChem BioAssay (Tox21)

Target: Estrogen receptor beta (Homo sapiens) (UniProt Q92731)
Sequence (Q92731 whole entry, looked up): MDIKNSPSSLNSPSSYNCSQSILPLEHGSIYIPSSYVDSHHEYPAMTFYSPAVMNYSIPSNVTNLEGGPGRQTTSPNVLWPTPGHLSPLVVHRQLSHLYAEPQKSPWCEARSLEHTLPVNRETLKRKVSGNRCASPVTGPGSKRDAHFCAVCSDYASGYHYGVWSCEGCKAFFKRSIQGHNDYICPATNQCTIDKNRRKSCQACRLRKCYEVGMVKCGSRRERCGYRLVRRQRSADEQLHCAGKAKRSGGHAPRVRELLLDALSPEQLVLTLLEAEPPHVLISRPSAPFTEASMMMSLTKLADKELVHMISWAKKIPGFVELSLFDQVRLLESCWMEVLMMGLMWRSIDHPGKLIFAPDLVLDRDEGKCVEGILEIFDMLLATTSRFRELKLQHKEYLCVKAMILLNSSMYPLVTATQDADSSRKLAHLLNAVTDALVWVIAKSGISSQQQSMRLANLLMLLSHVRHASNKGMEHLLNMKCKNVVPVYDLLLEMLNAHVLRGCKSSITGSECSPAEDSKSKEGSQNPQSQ
Assay: qHTS assay to identify small molecule agonists of the estrogen receptor beta (ER-beta) signaling pathway (AID 1259377)
Conditions: ER-beta-UAS-bla HEK293T, beta-lactamase FRET ratio, 16 h; series mostly up to 92.4 µM
From the text: U.S. Tox21 Program National Center for Advancing Translational Sciences [NCATS] NIH Chemical Genomics Center [NCGC] U.S. Environmental Protection Agency [EPA] National Institutes of Environmental Health Sciences [NIEHS] National Toxicology Program [NTP] U.S. Food and Drug Administration [FDA] Tox21 Assay Overview: Estrogen receptor (ER), a nuclear hormone receptor, plays an important role in development, metabolic homeostasis and reproduction. […]
Records with an inconclusive call do not appear. Active and inactive are the calls of the source. Calls come from the whole dose curve; as a rule, active = well fitted activation curve with a large enough effect in the signal ratio in the repeat runs (not every such curve was filed as active); inconclusive = weak or mixed curves, or effect the other way; inactive = flat fitted curve, though single readings scatter; the % refers to the signal ratio.

- compound: "CCc1cccc(N(C)C(N)=Nc2cccc3ccccc23)c1"
  activation: "inactive"
- compound: "COC(=O)c1cc(Cl)ccc1NS(=O)(=O)C(F)(F)F"
  activation: "inactive"
- compound: "CO/N=C1\\CN(c2nc3c(cc2F)c(=O)c(C(=O)O)cn3C2CC2)CC1CN (configuration not stated)"
  activation: "inactive"
- compound: "CCCCC(CC)COC(=O)COc1ccc(Cl)cc1C (configuration not stated)"
  activation: "inactive"
- compound: "C=CC(=C)CCCC(C)(C)OC(C)=O"
  activation: "inactive"
- compound: "CCOC(=N)CC(=O)OCC"
  activation: "inactive"
- compound: "O=C(CCCCCCCCC#CI)Oc1ccccc1"
  activation: "inactive"
- compound: "CC(C)c1nnc2ccc(-c3ocnc3-c3cc(F)ccc3F)cn12"
  activation: "inactive"
- compound: "CC(=O)[C@H]1CC[C@H]2[C@@H]3C[C@H](C)C4=CC(=O)CC[C@]4(C)[C@H]3[C@@H](O)C[C@]12C"
  activation: "inactive"
- compound: "CN(C(=O)C(Cl)Cl)c1ccc(OC(=O)c2ccco2)cc1"
  activation: "inactive"
- compound: "O=C(CS)OCCOC(=O)CS"
  activation: "inactive"
- compound: "CCn1cc(C(=O)O)c(=O)c2cc(F)c(N3CCNCC3)nc21"
  activation: "inactive"
